# EXPERIMENTAL SYSTEM: T1, recombinant biotinylated human CD71 extracellular domain (human, UniProt P02786 89-760, biotinylated)
# T1 construct: extracellular domain; also called hCD71; huCD71 ECD
# T1 sequence (P02786 other isoform, or with tags, fused parts or gaps): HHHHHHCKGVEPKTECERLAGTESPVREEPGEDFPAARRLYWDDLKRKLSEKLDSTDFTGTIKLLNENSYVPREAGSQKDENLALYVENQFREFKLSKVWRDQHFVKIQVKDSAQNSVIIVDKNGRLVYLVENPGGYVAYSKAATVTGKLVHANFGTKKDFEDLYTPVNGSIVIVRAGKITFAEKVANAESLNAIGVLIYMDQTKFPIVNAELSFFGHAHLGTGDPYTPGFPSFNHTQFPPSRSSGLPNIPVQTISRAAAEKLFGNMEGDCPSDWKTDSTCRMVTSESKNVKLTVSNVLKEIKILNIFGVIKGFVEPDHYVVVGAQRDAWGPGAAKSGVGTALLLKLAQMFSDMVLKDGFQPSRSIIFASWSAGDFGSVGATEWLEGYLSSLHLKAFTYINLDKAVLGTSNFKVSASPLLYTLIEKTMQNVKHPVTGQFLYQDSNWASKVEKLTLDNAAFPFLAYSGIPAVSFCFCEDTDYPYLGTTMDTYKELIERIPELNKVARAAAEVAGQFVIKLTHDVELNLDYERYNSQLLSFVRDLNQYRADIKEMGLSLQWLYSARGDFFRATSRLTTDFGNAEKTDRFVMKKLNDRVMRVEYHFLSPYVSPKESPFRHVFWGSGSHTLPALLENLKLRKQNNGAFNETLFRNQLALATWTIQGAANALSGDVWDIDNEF
# MEASUREMENT NOTES: solution ELISA, signal ratio to HSA
PROPERTY LABEL: hCD71:HSA

I: SEQ ID NO 150 (designed binder, FN3 domain) MLPAPKNLVVSRVTEDSARLSRTAPDAAFDSFYIAYAEPRPDGEAIVLIVPGSERSYDLTGLKPGTEYSVLIHGVKGGLLSSPLSAIFTT
II: SEQ ID NO 170 (designed binder, FN3 domain) MLPAPKNLVVSRVTEDSARLSWTAPDAAFDSFYIAYAEPRPDGEAIHLLVPGSERSYDLTGLKPGTEYSVLIHGVKGGLLSSPLLAHFTT
When I and II are compared, which has the higher number for hCD71:HSA? Write down the label attached to your selection.
II
